Assay: Plasma pharmacokinetics, Arm II (oral BID), phase 1 trial
Format: in vivo, human
Conditions: human, plasma, po, 190 mg, Arm II PO BID 190 mg, day 1, N=7; read-out: Cmax
reported-property: Cmax (ng/mL)
# unit: ng/mL | format: bare number

Note Cmax for the molecule shown: Nc1ncc(-c2cnn(CCO)c2)c2scc(-c3ccc(NC(=O)Nc4cccc(F)c4)cc3)c12 540

---

Experiment: Plasma pharmacokinetics, Arm II (oral BID), phase 1 trial
Type: in vivo, human
Conditions: human, plasma, po, 130 mg, Arm II PO BID 130 mg, day 15, N=3; read-out: Cmax
reported-property: Cmax
Give the value; after it, write the unit.

Note Cmax for the compound shown: Nc1ncc(-c2cnn(CCO)c2)c2scc(-c3ccc(NC(=O)Nc4cccc(F)c4)cc3)c12 260 ng/mL
